Data provenance: ChEMBL document CHEMBL5506027

Would you kindly list Vd for each of these molecules?
ASSAY_REMARKS: Volume of distribution at steady state in dog at 1 mg/kg, iv measured upto 24 hrs by LC-MS/MS anlaysis
Format: ADME, organism-based, Canis lupus familiaris
TEST_PARAMETERS: in vivo, read-out: Vdss

FC(F)c1c(Br)c(Br)cc2c1nc(N1CCNCC1)n2C1CCOCC1 :: 4.31 L/kg

Look at this molecule and give its reported Vd. Cc1c(Br)c(Br)c2c3c1nc(N1CCNCC1)n3CCC2 [SEL-120 FREE BASE]
6.23 L/kg

###

ASSAY_REMARKS: Tmax in rat at 10 mg/kg, po measured upto 24 hrs by LC-MS/MS analysis
Assay type: ADME, organism-based
TEST_PARAMETERS: in vivo
MEASURED_PROPERTY: Tmax
In your response, put the unit directly after the numeric value.

Look at this molecule and give its reported Tmax. `FC(F)c1c(Br)c(Br)cc2c1nc(N1CCNCC1)n2C1CCOCC1`
2 h
